System: NCI-H522 lung
PROTOCOL_NOTES: NCI tumour cell line growth inhibition, 48 h
RECORDED_ENDPOINT: TGI

> print(dat)
                                   compound  value.reported
1  Nc1ccc(-c2ncc3cc(-c4cccc(-c5cc6cnc(-c7ccc(N)cc7)nc6c6ccccc56)c4)c4ccccc4c3n2)cc1        > 100 µM
2  CC1(C)OCC2(CO1)CSCCCSCC1(COC(C)(C)OC1)CSCCCSC2        > 100 µM
3  CC(=O)[CH-]C(=O)c1ccccc1.CC(=O)[CH-]C(=O)c1ccccc1.COc1cccc([O-])c1[O-].[Ti+4]         31.7 µM
4  NC(=O)C(c1ccccc1)N1OC2C(=O)N(Cc3ccccc3)C(=O)C2C1c1cccc(Oc2ccc(Cl)cc2)c1 (centres undefined)        > 100 µM
